Biological target: Avi-KRAS G12D (1-169) GppNHp/RAF1 RBD-3xFLAG (52-151) (Homo sapiens, UniProt P01116, G12D)
Construct: Avi-KRAS G12D (1-169)
Sequence (P01116 1-169 isoform P01116-2 G12D): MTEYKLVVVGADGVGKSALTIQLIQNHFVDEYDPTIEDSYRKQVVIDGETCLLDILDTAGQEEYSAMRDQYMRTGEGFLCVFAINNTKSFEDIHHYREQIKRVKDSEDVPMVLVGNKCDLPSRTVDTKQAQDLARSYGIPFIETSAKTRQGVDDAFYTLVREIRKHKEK
Assay: Raf1-KRAS G12D-GppNHP disruption HTRF assay (Biological Example 1)
Assay type: binding
Details: KRAS G12D-GppNHp/RAF1 RBD HTRF
// IC50 lookup, one value per entry

Return reported IC50; argument: CCC(=O)N1C[C@@H](N(CC)c2nc(OC[C@@]34CCCN3C[C@H](F)C4)nc3c(F)c(-c4ccc(F)c5sc(N)c(C#N)c45)c(C(F)(F)F)cc23)C[C@H]1C 100 to 1000 nM

Query: IC50; subject: CC(=O)NCCN(C)c1nc(OC[C@@]23CCCN2C[C@H](F)C3)nc2c(F)c(-c3ccc(F)c4sc(N)c(C#N)c34)c(C(F)(F)F)cc12 100 to 1000 nM

What does the data say about its IC50? Entry: CN(c1nc(OC[C@@]23CCCN2C[C@H](F)C3)nc2c(F)c(-c3ccc(F)c4sc(N)c(C#N)c34)c(C(F)(F)F)cc12)[C@@H]1CC[C@H](O)C1 100 to 1000 nM

###

Target: Avi-KRAS G12D (1-169) GppNHp/RAF1 RBD-3xFLAG (52-151) (Homo sapiens, UniProt P01116, G12D)
Construct: Avi-KRAS G12D (1-169)
Assay: Raf1-KRAS G12D-GppNHP disruption HTRF assay (Biological Example 1)
Assay type: binding
Settings: KRAS G12D, GppNHp-loaded; class symbols
Procedure: A protein:protein interaction (PPI) Homogeneous Time Resolved Fluorescence (HTRF) assay was used to determine the effectiveness of compounds of the present disclosure in disrupting KRAS protein and effector RAF1 binding. The assay buffer included: 50 mM Tris pH 7.5, 100 mM NaCl, 5 mM MgCl2, 0.1% BSA, 0.01% Tween, and 10% DMSO. The bead buffer included: 50 mM Tris pH 7.5, and 0.01% Tween 20. […] Data was reported as percentage of activity, with DMSO as 100%. Data was plotted and analyzed using Prism 8.
pIC50: −log10 of the molar value.
Below is a list of entries, each paired with its recorded pIC50 value.

Compound | Property name | Result
N#Cc1c(N)sc2c(F)ccc(-c3c(C(F)(F)F)cc4c(N(C5CC5)[C@H]5CCN(C(=O)[C@@H]6CC6(F)F)C5)nc(OC[C@@]56CCCN5C[C@H](F)C6)nc4c3F)c12 (atropisomer, axis not shown) [Compound 779] | pIC50 | > 7.00
CC(=O)N1CC[C@H]2[C@@H]1CN2c1nc(OC[C@@]23CCCN2C[C@H](F)C3)nc2c(F)c(-c3ccc(F)c4sc(N)c(C#N)c34)c(C(F)(F)F)cc12 (atropisomer, axis not shown) [Compound 641] | pIC50 | 5.00 to 6.00
CCN(c1nc(OC[C@@]23CCCN2C[C@H](F)C3)nc2c(F)c(-c3ccc(F)c4sc(N)c(C#N)c34)c(C(F)(F)F)cc12)[C@H]1C[C@H](COC)N(C(=O)OC)C1 (atropisomer, axis not shown) [Compound 718] | pIC50 | > 7.00

I am curious: what pIC50 value has been reported for CCN(c1nc(OC[C@@]23CCCN2C[C@H](F)C3)nc2c(F)c(-c3ccc(F)c4sc(N)c(C#N)c34)c(C(F)(F)F)cc12)[C@H]1CC(=O)N2CCC[C@@H]12 (atropisomer, axis not shown; (aS)) [Compound 697] ? > 7.00
